# Test System: Cathepsin D (Homo sapiens, UniProt P07339)
# Sequence (P07339 65-162 limits assumed): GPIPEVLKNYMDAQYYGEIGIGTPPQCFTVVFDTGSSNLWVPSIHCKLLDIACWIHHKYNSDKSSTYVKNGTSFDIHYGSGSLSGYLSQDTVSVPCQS
# Sequence (P07339 169-412 limits assumed): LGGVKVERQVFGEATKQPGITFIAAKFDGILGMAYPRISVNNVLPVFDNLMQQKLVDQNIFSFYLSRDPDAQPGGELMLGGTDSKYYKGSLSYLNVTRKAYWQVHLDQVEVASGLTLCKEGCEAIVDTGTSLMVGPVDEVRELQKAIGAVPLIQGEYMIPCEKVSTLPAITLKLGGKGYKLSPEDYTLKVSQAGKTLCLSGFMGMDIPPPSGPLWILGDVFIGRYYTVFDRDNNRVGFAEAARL
Reported Endpoint: IC50

// IC50 (Cathepsin D (Homo sapiens, UniProt P07339)) for `CC(C)(C)OC(=O)N[C@@H](Cc1ccccc1)[C@H](O)CNC[C@@H](O)[C@H](Cc1ccccc1)NC(=O)OC(C)(C)C` = > 31 µM

====

# Test System: Pepsin A (Sus scrofa, UniProt P00791)
# Sequence (P00791 whole entry): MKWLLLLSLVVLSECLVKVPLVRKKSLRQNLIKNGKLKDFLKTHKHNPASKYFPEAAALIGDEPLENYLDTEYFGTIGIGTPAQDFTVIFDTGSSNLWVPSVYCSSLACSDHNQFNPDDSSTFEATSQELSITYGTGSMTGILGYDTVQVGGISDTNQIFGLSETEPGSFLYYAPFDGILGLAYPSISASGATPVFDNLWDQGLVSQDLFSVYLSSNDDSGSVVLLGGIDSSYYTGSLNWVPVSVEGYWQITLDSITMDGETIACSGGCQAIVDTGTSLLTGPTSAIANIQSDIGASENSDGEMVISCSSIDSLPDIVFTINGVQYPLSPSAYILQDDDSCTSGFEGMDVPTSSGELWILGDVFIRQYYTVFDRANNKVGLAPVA
Reported Endpoint: IC50

// IC50 (Pepsin A (Sus scrofa, UniProt P00791)) for `CC(C)(C)OC(=O)N[C@@H](Cc1ccccc1)[C@H](O)CNC[C@@H](O)[C@H](Cc1ccccc1)NC(=O)OC(C)(C)C` = > 31 µM

====

# Test system: Human immunodeficiency virus 1
# Method Description: Inhibition of viral replication by XTT endpoint
# Format: functional
# Condition Label: read-out: ED50 (the source's name)
// reported EC50 per item
The reply should contain only the number, in nM.

Some solved entries appear below for comparison.
>  <Compound>
CCC(C)C(NC(=O)OC(C)(C)C)[C@H](O)CNC[C@@H](O)C(NC(=O)OC(C)(C)C)[C@@H](C)CC (single isomer, unassigned)

>  <Test System>
Human immunodeficiency virus 1

>  <EC50 / nM>
5300

$$$$
>  <Compound>
CC(C)(C)OC(=O)NC(Cc1ccc(O)cc1)[C@H](O)CNC[C@@H](O)[C@H](Cc1ccccc1)NC(=O)OC(C)(C)C (some centres undefined)

>  <Test System>
Human immunodeficiency virus 1

>  <EC50 / nM>
60

$$$$

The compound listed as `CC(C)OC(=O)N[C@@H](Cc1ccccc1)[C@H](O)CNC[C@@H](O)[C@H](Cc1ccccc1)NC(=O)OC(C)C` shows EC50 equal to 1000

====

# Tested on: Human immunodeficiency virus 1
# Method Description: Inhibition of viral replication by XTT endpoint
# Format: functional
# Condition Label: read-out: ED50 (the source's name)
For each record, check the reported EC50: if it is below 200 nM write satisfied, else write not satisfied.

Below, 5 compounds whose answers are already recorded.
>  <Compound>
CC(C)(C)OC(=O)NC(CC1CCCCC1)[C@H](O)CNC[C@@H](O)C(CC1CCCCC1)NC(=O)OC(C)(C)C (some centres not stated)

>  <Test System>
Human immunodeficiency virus 1

>  <Class Name>
not satisfied

$$$$
>  <Compound>
CC(C)(C)OC(=O)N[C@@H](Cc1ccccc1)[C@H](O)CNC[C@@H](O)[C@H](Cc1ccccc1)NC(=O)OC(C)(C)C

>  <Test System>
Human immunodeficiency virus 1

>  <Class Name>
satisfied

$$$$
>  <Compound>
CC(C)(C)NC(=O)N[C@@H](Cc1ccccc1)[C@H](O)CNC[C@@H](O)[C@H](Cc1ccccc1)NC(=O)OC(C)(C)C

>  <Test System>
Human immunodeficiency virus 1

>  <Class Name>
satisfied

$$$$
>  <Compound>
O=C(N[C@@H](Cc1ccccc1)[C@H](O)CNC[C@@H](O)[C@H](Cc1ccccc1)NC(=O)OCc1ccccc1)OCc1ccccc1

>  <Test System>
Human immunodeficiency virus 1

>  <Class Name>
not satisfied

$$$$
>  <Compound>
CC(C)(C)OC(=O)N[C@@H](Cc1ccccc1)[C@H](O)CNC[C@@H](O)[C@H](Cc1ccccc1)NC(=O)SC(C)(C)C

>  <Test System>
Human immunodeficiency virus 1

>  <Class Name>
not satisfied

$$$$

Task item: Given the entry CC(C)(C)OC(=O)NC(CCc1ccccc1)[C@H](O)CNC[C@@H](O)[C@H](Cc1ccccc1)NC(=O)OC(C)(C)C (some centres not stated) , would its reported EC50 be below 200 nM?
Reply: not satisfied

Task item: Given the entry `CC(C)(C)CC(=O)N[C@@H](Cc1ccccc1)[C@H](O)CNC[C@@H](O)[C@H](Cc1ccccc1)NC(=O)OC(C)(C)C` , would its reported EC50 be below 200 nM?
Reply: not satisfied
